Quick reference for MIC among some molecules
tested on: S. epidermidis ATCC14990; test: MIC, S. epidermidis ATCC14990; assay type: cell-based; settings: Staphylococcus epidermidis, read-out: MIC
I only need the number, in µg/mL, no unit after it.

Reference set (5 entries):
molecule	target_desc	MIC / µg/mL
CN(C)CCn1nnnc1SCC1=C(C(=O)O)N2C(=O)[C@@H](NC(=O)Cc3csc(N)n3)[C@H]2SC1	S. epidermidis ATCC14990	0.39
Cn1nnnc1SCC1=C(C(=O)O)N2C(=O)C(NC(=O)C(=NOCC(=O)NN=Cc3ccc(O)c(O)c3)c3csc(N)n3)C2SC1 (stereo not drawn)	S. epidermidis ATCC14990	0.78
Cc1nnc(SCC2=C(C(=O)O)N3C(=O)C(NC(=O)C(=NOCC(=O)NNC(=O)c4ccc(O)c(O)c4)c4csc(N)n4)C3SC2)s1 (stereo not drawn)	S. epidermidis ATCC14990	0.39
CO[C@@]1(NC(=O)C(C(=O)O)c2ccc(O)cc2)C(=O)N2C(C(=O)O)=C(CSc3nnnn3C)CO[C@@H]21 (stereo partly drawn)	S. epidermidis ATCC14990	6.25
Cn1nnnc1SCC1=C(C(=O)O)N2C(=O)C(NC(=O)C(=NOCC(=O)NNC(=O)c3ccc(O)c(O)c3)c3csc(N)n3)C2SC1 (stereo not drawn)	S. epidermidis ATCC14990	0.39

In the following, a different molecule is considered.
Provide MIC value for the following molecule: CO/N=C(\C(=O)N[C@@H]1C(=O)N2C(C(=O)O)=C(COC(C)=O)CS[C@H]12)c1csc(N)n1
0.78
